system: CAKI-1 renal; assay: NCI tumour cell line growth inhibition, 48 h

- COMPOUND: "C[C@H](NC(=O)C(Cc1ccccc1)(Cc1ccc(O)cn1)NC(=O)c1ccccc1)c1ccccc1 (stereo partly drawn)"
  TGI: "90.5 µM"
- COMPOUND: "CC1CCC/C1=C(/I)C(=O)c1ccccc1 (stereo not drawn)"
  TGI: "69.5 µM"
- COMPOUND: "Nc1ccc(S(=O)(=O)c2ccc(NCN3C(=O)NC(=O)C(=O)C3=O)cc2)cc1"
  TGI: "> 100 µM"
- COMPOUND: "COc1ccc(CC(N)c2ccc(OC)cc2)cc1 (stereo not drawn)"
  TGI: "> 100 µM"
- COMPOUND: "CCCC(=O)NC(Nc1ccc(S(=O)(=O)Nc2cc(C)on2)cc1)(C(=O)OCC)C(F)(F)F (stereo not drawn)"
  TGI: "> 100 µM"
- COMPOUND: "O=C1OCC2=C1C(c1cccc(Cl)c1)c1cc3c(cc1N2CCO)OCCO3 (stereo not drawn)"
  TGI: "> 55.6 µM"
- COMPOUND: "O=c1cc(N2CCCC2)[nH]c(=O)n1Cc1ccccc1"
  TGI: "> 100 µM"
- COMPOUND: "C#CC#CC#CC#CC#CC#CC#CC#CCC1OCC(COC(=O)O[C@@H](C(=O)O[C@H]2C[C@@]3(O)[C@@H](OC(=O)c4ccccc4)[C@@H]4[C@]5(OC(C)=O)CO[C@@H]5C[C@H](O)[C@@]4(C)C(=O)[C@H](OC(C)=O)C(=C2C)C3(C)C)[C@@H](NC(=O)c2ccccc2)c2ccccc2)O1 (stereo partly drawn)"
  TGI: "> 33.3 µM"

---

system: OVCAR-8 ovarian; assay: NCI tumour cell line growth inhibition, 48 h

- COMPOUND: "COc1cc(OC)c(C/C=C/c2ccccc2)cc1O"
  REPORTED RELATION: "="
  TGI, µM: 32.8
- COMPOUND: "O=C1Nc2ccc(Br)cc2C1=Nc1cccnc1"
  REPORTED RELATION: "="
  TGI, µM: 51.7
- COMPOUND: "O=C1CCCCC1S(=O)(=O)c1ccccc1 (configuration not stated)"
  REPORTED RELATION: ">"
  TGI, µM: 100
- COMPOUND: "Cc1ccc(OCC2OC(n3cnc4nc(N)nc(Cl)c43)CC2Oc2ccc(C)cc2)cc1 (configuration not stated)"
  REPORTED RELATION: "="
  TGI, µM: 50
- COMPOUND: "CC1=C(c2cccc(O)c2)[C@H](c2ccc(OCCN3CC(CF)C3)cc2)Oc2ccc(O)cc21"
  REPORTED RELATION: "="
  TGI, µM: 32.6
- COMPOUND: "COc1ccc2c3c1OC1C(=O)C=CC4(CC2)N(C)CCC314 (configuration not stated)"
  REPORTED RELATION: ">"
  TGI, µM: 100
- COMPOUND: "NC(=O)NNc1nc(-c2ccccc2)cs1"
  REPORTED RELATION: ">"
  TGI, µM: 100
- COMPOUND: "COc1c(O)c2c3c(cc(C)cc3c1C(C)C)OC2"
  REPORTED RELATION: ">"
  TGI, µM: 100
- COMPOUND: "CCN(CC)N1C(=O)[N+](CC)(CC)N=C1[O-]"
  REPORTED RELATION: ">"
  TGI, µM: 100
- COMPOUND: "O=C(Nc1ccc(Br)cc1F)c1cc(I)ccc1O"
  REPORTED RELATION: "="
  TGI, µM: 15.9
- COMPOUND: "Cc1nc(Nc2ccccc2)sc1C(=O)CC(=O)C(=O)Nc1c(C(C)C)cccc1C(C)C"
  REPORTED RELATION: ">"
  TGI, µM: 100
- COMPOUND: "Nc1ccc(S(=O)(=O)c2ccc(NCN3C(=O)NC(=O)C(=O)C3=O)cc2)cc1"
  REPORTED RELATION: ">"
  TGI, µM: 100
- COMPOUND: "Cc1cc2c(C(C)C)c(O)c(O)cc2c(O)c1-c1c(C)cc2c(C(C)C)c(O)c(O)cc2c1O"
  REPORTED RELATION: "="
  TGI, µM: 41.1
- COMPOUND: "CCCCOC(=O)N1CCN(/[N+]([O-])=N/Oc2ccc([N+](=O)[O-])cc2[N+](=O)[O-])CC1"
  REPORTED RELATION: ">"
  TGI, µM: 100
- COMPOUND: "COC(=O)C1CCC(=S)N1C(=O)c1ccccc1 (configuration not stated)"
  REPORTED RELATION: ">"
  TGI, µM: 100
- COMPOUND: "O=C(Nc1cccc(-n2cc(-c3ccncc3)c(-c3ccc(Cl)c(O)c3)n2)c1)Nc1cc(C(F)(F)F)cc(C(F)(F)F)c1"
  REPORTED RELATION: "="
  TGI, µM: 5.92
- COMPOUND: "COc1ccc2c(c1)NC1=C(C(=O)OC1)C2c1cc(OC)c2c(c1)OCO2 (configuration not stated)"
  REPORTED RELATION: ">"
  TGI, µM: 100
- COMPOUND: "CCNCCCn1c2c(c3ccc(Cl)cc3c1=O)C(=O)c1cc(OC)cnc1-2"
  REPORTED RELATION: "="
  TGI, µM: 3.22
- COMPOUND: "COc1cccc(N2C(=O)C3c4[nH]c5ccccc5c4C4CCCC4C3C2=O)c1 (configuration not stated)"
  REPORTED RELATION: ">"
  TGI, µM: 10
- COMPOUND: "CC(CN(C)C)/C(=N\\Nc1ccccc1)c1ccccc1 (configuration not stated)"
  REPORTED RELATION: ">"
  TGI, µM: 100
- COMPOUND: "CN1CCN(C(=O)C(C)(C)c2ccc(C(=O)Nc3cn4cc(-c5ccncc5)ccc4n3)cc2)CC1"
  REPORTED RELATION: ">"
  TGI, µM: 100
- COMPOUND: "Cc1ccccc1C1OC(=O)c2ccc3ccccc3c21 (configuration not stated)"
  REPORTED RELATION: "="
  TGI, µM: 12.8

---

tested on: SK-MEL-5 melanoma; experiment: NCI tumour cell line growth inhibition, 48 h
OBSERVABLE: TGI

- COMPOUND: "Cc1csc(NC23CC4CC(CC(C4)C2)C3)[n+]1C(P(=O)([O-])O)P(=O)(O)O (stereo unspecified)"
  RECORDED VALUE: "> 100 µM"
- COMPOUND: "CN(C)C(=O)OC1C(=O)N(C)c2ccc(Cl)cc2C2(c3ccccc3)N1C2(Cl)Cl (stereo unspecified)"
  RECORDED VALUE: "> 100 µM"
- COMPOUND: "CCCCCCCCCCCCCCCC(=O)OCC1OC(n2cc(F)c(=O)[nH]c2=O)C(N)C(O)C1O (stereo unspecified)"
  RECORDED VALUE: "33.1 µM"
- COMPOUND: "O=C1C=CC(=O)C2=C1[C@@H](O)C1CC=CC3C(=O)O[C@@H]2C31 (stereo partly specified)"
  RECORDED VALUE: "41.2 µM"
- COMPOUND: "COc1ccc(C2=Nc3cc(C)c(C)cc3NC(c3ccccc3)C2)cc1 (stereo unspecified)"
  RECORDED VALUE: "> 100 µM"
- COMPOUND: "NCCCC[C@@H]1NC(=O)[C@H]2CCCN2C(=O)[C@H](Cc2ccccc2)CNC(=O)[C@H](Cc2ccccc2)NC1=O"
  RECORDED VALUE: "> 37.5 µM"
- COMPOUND: "Cc1ccc(C(N)=O)cc1N=NN(C)C"
  RECORDED VALUE: "> 100 µM"
- COMPOUND: "CCOP(=O)(/C=C\\n1cc(C)c(=O)[nH]c1=O)OCC"
  RECORDED VALUE: "> 100 µM"
- COMPOUND: "COc1cc2nc(N3CCCC3)nc(NCc3ccccc3)c2cc1OC"
  RECORDED VALUE: "3.12 µM"
- COMPOUND: "Cc1ccc([S@](=O)c2occc2C=O)cc1"
  RECORDED VALUE: "23.1 µM"
- COMPOUND: "N#C/C(=C\\c1ccsc1)c1nc2ccccc2o1"
  RECORDED VALUE: "> 100 µM"

---

system: U251 CNS
Outcomes: TRUE = active, FALSE = inactive

- MOLECULE: "CC1=C(C(=O)Nc2ccc3n[nH]c(C)c3c2)C(c2ccc(C(F)(F)F)cc2)CC(=O)N1 (stereo unspecified)"
  CLASS ASSIGNMENT: "FALSE"
- MOLECULE: "C[C@@]12CCC(=O)c3coc(c31)C(=O)c1cc3c(cc12)C(=O)C=CC3=O"
  CLASS ASSIGNMENT: "FALSE"
- MOLECULE: "COC1CC(O[C@H]2CC[C@@]3(C)[C@H](CC[C@@H]4[C@@H]3CC[C@]3(C)[C@@H](C5=CC(=O)OC5)[C@@H](OC(C)=O)C[C@]43O)C2)OC(C)C1O (stereo partly specified)"
  CLASS ASSIGNMENT: "TRUE"
- MOLECULE: "COc1ccc(C/C(C)=C(/c2ccc(OCCN3CCCCC3)cc2)c2ccc(OC(=O)NCc3ccccc3)cc2)cc1"
  CLASS ASSIGNMENT: "TRUE"
- MOLECULE: "O=C(Nc1ccc(Br)cc1F)c1cc(I)ccc1O"
  CLASS ASSIGNMENT: "FALSE"
- MOLECULE: "Cc1ccccc1OCC(O)CN1CCN(c2ccc(Cl)cc2)CC1 (stereo unspecified)"
  CLASS ASSIGNMENT: "FALSE"

Hey, just so you know, these numbers are from PubChem BioAssay (NCI).
